Record form. Attribute: Ki. Fill in for each entry.
MEASUREMENT TARGET: Protein-arginine deiminase type-4 (Homo sapiens)
Sequence (Q9UM07 whole entry): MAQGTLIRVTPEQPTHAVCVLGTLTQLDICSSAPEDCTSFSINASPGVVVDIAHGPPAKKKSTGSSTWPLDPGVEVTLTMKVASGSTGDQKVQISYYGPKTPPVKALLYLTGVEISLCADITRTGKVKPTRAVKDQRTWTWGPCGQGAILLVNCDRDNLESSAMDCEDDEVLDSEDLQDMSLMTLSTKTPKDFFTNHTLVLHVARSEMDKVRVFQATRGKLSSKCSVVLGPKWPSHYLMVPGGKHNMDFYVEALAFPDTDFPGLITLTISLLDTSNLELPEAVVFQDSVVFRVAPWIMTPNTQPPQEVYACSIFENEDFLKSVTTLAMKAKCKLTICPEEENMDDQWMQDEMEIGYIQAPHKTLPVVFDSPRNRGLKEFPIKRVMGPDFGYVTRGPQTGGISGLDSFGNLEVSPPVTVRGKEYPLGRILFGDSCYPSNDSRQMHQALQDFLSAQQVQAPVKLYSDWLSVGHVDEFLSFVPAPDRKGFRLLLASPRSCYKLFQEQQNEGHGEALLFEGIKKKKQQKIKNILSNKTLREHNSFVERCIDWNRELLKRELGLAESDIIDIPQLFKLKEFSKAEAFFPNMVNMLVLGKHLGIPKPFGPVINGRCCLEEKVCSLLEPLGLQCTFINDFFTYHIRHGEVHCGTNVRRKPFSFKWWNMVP
TEST SUMMARY: Inhibition of full length recombinant human N-terminal GST-tagged PAD4 expressed in baculovirus infected Sf9 cells using benzoyl arginine ethylester as substrate preincubated for 30 mins followed by substrate addition measured after 30 mins by colorimetric assay
Give bare numbers, in µM.

# example entries with known answers
>>> data_value("CC1(C)NC(=O)N(CN2CCNCC2)C1=O")
183
>>> data_value("CC1(C)NC(=O)N(CCN2CCCC2)C1=O")
4640
>>> data_value("CC1(C)NC(=O)N(CCn2ccnc2)C1=O")
632

Q. Provide one value: measured Ki of CC1(C)NC(=O)N(CCN2CCOCC2)C1=O
A. 1430
